- Species: Rattus norvegicus
- assayNotes: Selectivity ratio of IC50 for delta opioid receptor in Wistar rat brain membrane to IC50 for mu opioid receptor in Wistar rat brain membrane
- Type: cell membranes
Where a SMILES comes first, the peptide text is derived from it. Bridges are numbered along the chain shown (N, C = ends). [ ]: non-standard residue; d: D form.
quantityName: Ratio IC50
Answer field: number only, no words.

NC(=O)[C@@H]1CC(=O)NCCCC[C@@H](NC(=O)[C@@H](N)Cc2ccc(O)cc2)C(=O)N[C@@H](Cc2ccccc2)C(=O)N[C@@H](Cc2ccccc2)C(=O)N1 (H-Y[dK]FFD-NH2; lactam 2-5) ... 498

Prompt: Determine from records and report Ratio IC50 for `Cc1cc(O)cc(C)c1C[C@H](N)C(=O)N[C@@H]1CCCCNC(=O)C[C@@H](C(N)=O)NC(=O)[C@H]2CCCN2C(=O)[C@H](Cc2ccccc2)NC1=O`
Completion: 23.5

Prompt: Supply recorded Ratio IC50 for `Cc1cc(O)cc(C)c1C[C@H](N)C(=O)N[C@@H]1CC(=O)NCCCC[C@@H](C(N)=O)NC(=O)[C@H]2CCCN2C(=O)[C@H](Cc2ccccc2)NC1=O` here.
Completion: 13.2

###

- assayTarget: Mu-type opioid receptor (Rattus norvegicus, UniProt P33535)
- Sequence (P33535 whole entry): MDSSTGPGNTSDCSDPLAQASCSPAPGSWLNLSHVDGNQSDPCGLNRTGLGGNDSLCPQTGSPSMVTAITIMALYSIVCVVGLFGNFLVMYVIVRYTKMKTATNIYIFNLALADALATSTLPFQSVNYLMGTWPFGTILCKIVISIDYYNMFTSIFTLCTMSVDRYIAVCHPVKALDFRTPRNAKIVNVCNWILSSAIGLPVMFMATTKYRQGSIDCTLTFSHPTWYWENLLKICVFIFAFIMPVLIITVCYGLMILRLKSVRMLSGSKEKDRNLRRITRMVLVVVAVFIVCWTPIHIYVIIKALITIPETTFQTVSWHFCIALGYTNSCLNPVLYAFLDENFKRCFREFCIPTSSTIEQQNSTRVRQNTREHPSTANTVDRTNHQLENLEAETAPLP
Where a SMILES comes first, the peptide text is derived from it. Bridges are numbered along the chain shown (N, C = ends). [ ]: non-standard residue; d: D form. Dmt = Cc1cc(O)cc(C)c1C[C@H](N)C(=O)O
Form field: IC50 (one value per entry).
Write the answer as a number in nM, unit excluded.

Cc1cc(O)cc(C)c1C[C@H](N)C(=O)N[C@@H]1CCCCNC(=O)C[C@@H](C(N)=O)NC(=O)[C@H]2CCCN2C(=O)[C@H](Cc2ccccc2)NC1=O ... 5.6
Cc1cc(O)cc(C)c1C[C@H](N)C(=O)N[C@@H]1CCCCNC(=O)C[C@@H](C(N)=O)NC(=O)[C@H](Cc2ccccc2)NC(=O)[C@H](Cc2ccccc2)NC1=O (H-[Dmt][dK]FFD-NH2; lactam 2-5) ... 0.26
NC(=O)[C@@H]1CC(=O)NCCCC[C@@H](NC(=O)[C@@H](N)Cc2ccc(O)cc2)C(=O)N[C@@H](Cc2ccccc2)C(=O)N2CCC[C@@H]2C(=O)N1 ... 89.5

Prompt: Retrieve IC50 on Mu-type opioid receptor (Rattus norvegicus, UniProt P33535); query NC(=O)[C@@H]1CCCN1C(=O)[C@H](Cc1ccccc1)NC(=O)[C@@H]1CCCN1C(=O)[C@@H](N)Cc1ccc(O)cc1 [MORPHICEPTIN] (H-YPFP-NH2)
Completion: 56.6

###

- assayTarget: Mu-type opioid receptor (Rattus norvegicus, UniProt P33535)
Where a SMILES comes first, the peptide text is derived from it. Bridges are numbered along the chain shown (N, C = ends). [ ]: non-standard residue; d: D form.
quantityName: pIC50
Scale for pIC50: -log10 of concentration given in mol/L; no unit attached.

Prompt: Kindly indicate its recorded pIC50. Item: NC(=O)[C@@H]1CC(=O)NCCCC[C@@H](NC(=O)[C@@H](N)Cc2ccc(O)cc2)C(=O)N[C@@H](Cc2ccccc2)C(=O)N[C@@H](Cc2ccccc2)C(=O)N1 (H-Y[dK]FFD-NH2; lactam 2-5)
Completion: 9.25

Prompt: Return value of pIC50 for input `NC(=O)[C@@H]1CCCCNC(=O)C[C@@H](NC(=O)[C@@H](N)Cc2ccc(O)cc2)C(=O)N[C@@H](Cc2ccccc2)C(=O)N2CCC[C@@H]2C(=O)N1` , no commentary.
Completion: 7.82

Prompt: Report pIC50, nothing else, for this compound: `Cc1cc(O)cc(C)c1C[C@H](N)C(=O)N[C@@H]1CC(=O)NCCCC[C@@H](C(N)=O)NC(=O)[C@H]2CCCN2C(=O)[C@H](Cc2ccccc2)NC1=O`
Completion: 8.36
